- measurementNotes: protein stability index of a GFP-peptide fusion (yeast GPS) (PSI 1-4); higher = more stable; sorted into four equal gates, so the index is relative within each strain
- experimentalParameters: pdr5∆
Recorded protein stability index for the following sequences
The reply should be a number, written without any unit.

Known protein stability index results, listed for orientation:
| seqString | endpointLabel | measuredNumber |
| --- | --- | --- |
| KFKKEKFDIIIVDTSGR [SRP54] | protein stability index | 3.01 |
| NNNNNNNNNSTRPQMPS [GRR1] | protein stability index | 3.04 |
| IAAMVAQKCGWTIPHKK [SIR2] | protein stability index | 2.41 |
| IDKLEDLSRIMDWLDNW [ITC1] | protein stability index | 2.67 |
| DIEQLEYSRDCFCEDHC [RPB3] | protein stability index | 2.54 |
| EGNEKLAAVPAAGPASA [RPP2A] | protein stability index | 2.23 |

Returns the measured protein stability index for the input sequence. Input: LLIHRKGLTYLHLDYNF [PRP8] 1.28

Subsequent entry: REKLAEVYKAEKDAVSV [RPS24A] 3.17

====

- measurementNotes: protein stability index of a GFP-peptide fusion (yeast GPS) (PSI 1-4); higher = more stable; sorted into four equal gates, so the index is relative within each strain
- experimentalParameters: doa10∆
Kind request: treat 3 as inclusive, so protein stability index at 3 or higher is t, anything lower is f.

| seqString | classification |
| --- | --- |
| PQKSSSKGFVFNSVQKK [YAR002W/NUP60] | f |
| QNGQQPPTTSNLIIFLY [YML103C/NUP188] | f |
| PNFDWDLCSSVLSQFER [ROX3] | t |
| SLIRNNLHAEGWPKLQL [ECM29] | f |
| EVTKEEDIIANYASVYP [RRP43] | f |

Assess whether reported protein stability index for PPTDTNVEESVSKADIL [POP5] sits at 3 or higher. t

Please give the result for LIQSYSLLDKPDEAIEK [FAS1] too. f

Proceed to ILECDLLICIGTSLKVA [SIR2] f

====

Measured protein stability index accompanies every entry in the list below.
- measurementNotes: protein stability index of a GFP-peptide fusion (yeast GPS) (PSI 1-4); higher = more stable; sorted into four equal gates, so the index is relative within each strain
- experimentalParameters: ubr1∆

| seqString | result |
| --- | --- |
| DRRKARKAYFTAPSSER [RPL26B] | 3.1 |

Value lookup for protein stability index; key = KEEELIERDSLVDDENE [BRN1] 3.25

Now consider ESQEKYMEPFDLDLNEQ [NSL1] . 3.3

And then KPMAFSNTTTHVPEKKS [MTR3] , what is it? 1.62

Same thing, different sequence: ILTEHLGYPPISLVDDI [MTW1] 2.11

Same lookup for LEDELYHTNPGHSQFTS [RPN4] , please. 3.21

====

- measurementNotes: protein stability index of a GFP-peptide fusion (yeast GPS) (PSI 1-4); higher = more stable; sorted into four equal gates, so the index is relative within each strain
- experimentalParameters: pdr5∆
Classify by measured protein stability index: fulfilled if it is equal to or exceeds 3, not fulfilled if it is smaller.

Some entries whose results are on file:
| seqString | classification |
| --- | --- |
| IEQEKQEQQEQDKKKKS [PRE6] | not fulfilled |
| FKVQIIELLSYLVEAPW [YML103C/NUP188] | not fulfilled |
| LQVLKRERDGIKEDIEK [SMC1] | not fulfilled |
| NEEATPIPSSETKADGI [RRP6] | fulfilled |
| DIDDILKKGEQKTQELN [ISW2] | fulfilled |
| KNFDMLNSMEKDRISHE [PCI8] | not fulfilled |
| TFLPSYMKFSNKYLELC [RRI2] | not fulfilled |
| QLLNGQKIVVVRAEELN [RPL16A] | not fulfilled |

Textbook exercise: given the entry LIENCKKRNMPLQSIPE [SWI1] , state whether its protein stability index is greater than or equal to 3. not fulfilled

Same question, YISKIGEKIDSNKPIFL [SWI1] this time not fulfilled

# iterate: GTFGGDGMYSESKLSLE [FAS2] not fulfilled

Another: SSFNFNKNLPFVWLSSE [SWI1] not fulfilled

Again, but for GQKNEVRILRLITTNSV [SNF2] not fulfilled

Item: ESDLYKLKECPFDMGGY [RPB2] fulfilled

====

List of protein stability index values.
- measurementNotes: protein stability index of a GFP-peptide fusion (yeast GPS) (PSI 1-4); higher = more stable; sorted into four equal gates, so the index is relative within each strain
- experimentalParameters: doa10∆
Please reply with the number alone, leaving off any unit.

Known results for sequences:
| seqString | measuredNumber |
| --- | --- |
| LVLGEVSKKELYAIKKV [BRR2] | 1.68 |
| EKTMMTFGKPEEEDSIL [YCS4] | 3.27 |
| KKKKKGSNQKPKYEPPV [RPT2] | 2.94 |

Fill in the blank: the reported protein stability index of IAARRTGLLRGSQKTQD [RPL2A] is ____. 2.83

And for NPYNTRSNKIKVVKTPG [RPL34A] ? 1.98

====

- measurementNotes: protein stability index of a GFP-peptide fusion (yeast GPS) (PSI 1-4); higher = more stable; sorted into four equal gates, so the index is relative within each strain
- experimentalParameters: pdr5∆
endpointLabel: protein stability index
Give the value as a plain number.

These solved cases illustrate the format of a correct answer.
| seqString | protein stability index |
| --- | --- |
| SLDNKTLDDLVTKWTNQ [YJL041W/NSP1] | 3.07 |
| EVYGINEESTNERLEIN [SIR4] | 3.25 |
| WNSLMYALQSVKLPRAF [RRP43] | 1.34 |

# ---- query sequence ----
Which protein stability index reading was recorded for the sequence PTGKEEGDGAKAAISFG [YJL041W/NSP1] ? 3.04

====

- measurementNotes: protein stability index of a GFP-peptide fusion (yeast GPS) (PSI 1-4); higher = more stable; sorted into four equal gates, so the index is relative within each strain
- experimentalParameters: san1∆
Classification field: fulfilled = protein stability index at or over 3; not fulfilled = protein stability index under 3.

Examples with answers:
| seqString | classification |
| --- | --- |
| SATSKPAFSFGAKPEEK [YJL041W/NSP1] | fulfilled |
| DHASIRRGYQVYREVCA [CYT1] | not fulfilled |
| SGDESNVISSKDWELEA [YDL116W/NUP84] | fulfilled |
| HMADAKIMPKDILQITK [SIR4] | not fulfilled |
| KTVDSSIQPIESNIKMT [SSN2] | not fulfilled |
| GGAYTVSTAAAATVRST [RPL43A] | not fulfilled |
| GSTGGLGASFGQQQQQS [YGL172W/NUP49] | not fulfilled |
| VAATNTPIIFIGTGEHI [SRP54] | not fulfilled |
| MCHIVRKFHELNDHIDD [GRR1] | not fulfilled |
| DRFKYRSVDRAGRKFKS [POP4] | fulfilled |

Given the entry KSLDEQLLLLSDERAKL [LRP1] , answer whether its protein stability index meets or surpasses 3. not fulfilled

What would you report for ESIDVDMDAESNESQNG [SMC3] ? not fulfilled

====

Measured protein stability index, listed per entry.
- measurementNotes: protein stability index of a GFP-peptide fusion (yeast GPS) (PSI 1-4); higher = more stable; sorted into four equal gates, so the index is relative within each strain
- experimentalParameters: san1∆
Just the number, please.

Known results for sequences:
| seqString | protein stability index |
| --- | --- |
| LRRVEERFTKSKTLSLI [FAS1] | 2.17 |
| MAKQLIRLANESSELNK [CSN12] | 2.96 |
| SGEKIDFLLSDWNKRFS [BRR2] | 2.88 |
| VNKYGLRADKLYEKLKQ [ISW2] | 1.6 |
| FLKLVLSESPVDFEKFE [SIN4] | 2.66 |
| NTIRQNVTSSGDHNKLR [YML103C/NUP188] | 3.21 |
| WFCPCHGSHYDISGRIR [RIP1] | 2.64 |
| DGTGVRVIVAGTLDINP [FAS1] | 2.99 |
| SVMPPNEVYSAYVVNDT [DLS1] | 1.89 |
| KDTNDHVDKRTKIDQEA [ISW2] | 2.77 |

# lookup: protein stability index of LKTEAANVLDPSLRKLI [BRR2] 2.9

What do you have for RREELQQRIREIGLLPE [SMC3] ? 3.21

Ok, now ARIKDAFITQLESSITD [YJL039C/NUP192] 1.14

Also need KPFLKKTQEYYTQYTND [CDC53] , thanks. 3.07

EKGENPSCVYNLIGVIT [UBP6] , same question. 3.07

Input DNIRYATALQTCAGGRL [SMC2] 2.8

Likewise for FVSSLSNTSTLKNMLYV [BRR2] ? 1.85

Moving on to WGYQMVWAPTQKCFKLT [POP1] 2.57

Also need CVYSGLIPDGRHLVNRG [PRE10] , thanks. 2.1

Thanks! And RDVSDDVFDTLATYCPR [GRR1] ? 3.05

Continue with KKFNMGKEFEARNLIED [RPC53] 3.04

Repeat for the following sequence: VGEKLVVVVLEEPSASI [SIR3] 3.2

# repeat for GIRGKLVTIEGALIHKA [SMC1] 2.88

Next entry: IELSVPDRQSMDSRVAH [SRB5] 3.17

Similarly, LAELINMTTIADRNDDD [SRB6] ? 2.75

Similarly, MHLMALHIHGSSNPLGI [COB] ? 2.1

// repeat for NYIPGNPLVTPASIVPE [COB] and report 2.42

Quick one: REQYETQVALNESEKDQ [UBP6] 2.69

// query: NDSKEESTTEATGNESQ [YLR335W/NUP2] 2.97

Now the sequence SLDNKTLDDLVTKWTNQ [YJL041W/NSP1] 3.05
